Values compiled from patent US20150266836A1.

Assign melting point to each entry below.

Tell me the measured melting point of N#Cc1cccc(Sc2ncccn2)c1 , please.
71 to 73 °C

Tell me the measured melting point of COc1cc(Sc2nnc(-c3ccccc3)o2)cc(OC)c1OC , please.
142 °C

Tell me the measured melting point of COc1cc(Sc2nc3ccccc3o2)cc(OC)c1OC , please.
129 to 130 °C

Tell me the measured melting point of Fc1c(F)c(F)c(Sc2ccccc2)c(F)c1F , please.
45 to 48 °C

Tell me the measured melting point of COc1cc(Sc2ncccn2)cc(OC)c1OC , please.
103 to 104 °C

Tell me the measured melting point of COc1cc(Sc2nnnn2-c2ccccc2)cc(OC)c1OC , please.
110 to 111 °C

Tell me the measured melting point of c1ccc(Sc2nnnn2-c2ccccc2)cc1 , please.
129 to 133 °C
